Exercise: for every item that follows, state its recorded inhibition.
target: Inhibitor of nuclear factor kappa-B kinase subunit beta (Homo sapiens); settings: at 1 µM;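 note: reported as mean inhibition, from the GSK PKIS screening set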
Write the value in % as a bare number.

Exam item: Identify measured inhibition associated with `CCn1c(-c2nonc2N)nc2ccncc21`
Marked response: 3.24

Exam item: Identify measured inhibition associated with `Cc1cc(O)cc(C)c1/C=C/c1cncc(-c2nn[nH]n2)c1`
Marked response: 4.65

Exam item: Identify measured inhibition associated with `Nc1ncnc2occ(-c3ccc(NC(=O)Nc4cc(C(F)(F)F)cc(C(F)(F)F)c4)cc3)c12`
Marked response: 1.07

Exam item: Identify measured inhibition associated with `COc1ccccc1Nc1ncc(-c2ccccc2)o1`
Marked response: 9.61

Exam item: Identify measured inhibition associated with `Nc1nc(-c2ccccn2)c(-c2ccc3ncccc3n2)s1`
Marked response: 4.54

Exam item: Identify measured inhibition associated with `COc1cc(C=NNc2ncnc3c2cnn3-c2ccccc2)ccc1O`
Marked response: -0.52

Exam item: Identify measured inhibition associated with `COc1cc2c(cc1Nc1nc(N3CCc4ccccc43)c3cc[nH]c3n1)N(C(=O)CN(C)C)CC2`
Marked response: -1.42

Exam item: Identify measured inhibition associated with `CCCN1CCC(Oc2cc(Nc3nc(Nc4cccc(F)c4C(N)=O)c4cc[nH]c4n3)c(OC)cc2Cl)CC1`
Marked response: -4.88

Exam item: Identify measured inhibition associated with CC1=C(C(=O)Nc2ccc3[nH]ncc3c2)C(c2ccc(Cl)c(Cl)c2)CC(=O)N1 (stereo not given)
Marked response: 0.15

Exam item: Identify measured inhibition associated with `COc1ccc(COc2ccc(Cc3cnc(N)nc3N)cc2OC)cc1`
Marked response: -1.34

* * *

Exercise: for every item that follows, state its recorded inhibition.
target: 5'-AMP-activated protein kinase catalytic subunit alpha-2 (Homo sapiens) (UniProt P54646); conditions: at 0.1 µM;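 note: mean inhibition measured on the AMPK complex of alpha2, beta1 and gamma1 subunits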
Sequence (P54646 whole entry, looked up): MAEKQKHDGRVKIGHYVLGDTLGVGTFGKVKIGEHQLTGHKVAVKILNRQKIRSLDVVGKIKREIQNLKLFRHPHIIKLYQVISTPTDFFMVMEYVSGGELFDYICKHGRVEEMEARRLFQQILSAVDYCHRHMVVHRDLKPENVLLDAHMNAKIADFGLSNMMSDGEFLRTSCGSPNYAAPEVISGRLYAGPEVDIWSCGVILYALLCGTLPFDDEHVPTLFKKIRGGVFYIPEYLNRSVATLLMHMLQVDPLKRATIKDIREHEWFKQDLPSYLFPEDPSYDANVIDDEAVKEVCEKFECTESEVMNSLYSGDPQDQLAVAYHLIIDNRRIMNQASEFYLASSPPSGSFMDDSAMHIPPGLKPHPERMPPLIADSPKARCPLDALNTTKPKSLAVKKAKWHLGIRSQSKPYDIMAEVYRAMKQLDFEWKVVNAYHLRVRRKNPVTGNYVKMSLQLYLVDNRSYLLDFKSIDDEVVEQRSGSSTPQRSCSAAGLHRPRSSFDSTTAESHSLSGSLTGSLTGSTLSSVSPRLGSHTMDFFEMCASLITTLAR
Description: GSK_PKIS: AMPKA2 (A2B1G1) mean inhibition at 0.1 uM [Nanosyn]
Write the value in % as a bare number.

Exam item: Identify measured inhibition associated with `COc1cc2c(cc1Nc1nc(N3CCc4ccccc43)c3cc[nH]c3n1)N(C(=O)CN(C)C)CC2`
Marked response: -1.68

Exam item: Identify measured inhibition associated with `COC(=O)Nc1nc2cc(Oc3ccc(NC(=O)Nc4cccc(C(=O)O)c4)cc3)ccc2[nH]1`
Marked response: -4.37

Exam item: Identify measured inhibition associated with `O=C1Nc2ccc(C(=O)c3ccco3)cc2C1=Cc1cc(Cl)c(O)c(Cl)c1`
Marked response: 3.01

Exam item: Identify measured inhibition associated with COc1ccc2cc(-c3c(-c4ccncc4)nc(-c4ccc([S+](C)[O-])cc4)n3C)ccc2c1 (stereo not given)
Marked response: 1.9

Exam item: Identify measured inhibition associated with `NS(=O)(=O)c1ccc(N/N=C2\C(=O)Nc3ccc(C(=O)NCCc4c[nH]cn4)cc32)cc1`
Marked response: 23.9

* * *

Exercise: for every item that follows, state its recorded inhibition.
biological target: Dual specificity tyrosine-phosphorylation-regulated kinase 1B (Homo sapiens); settings: at 1 µM;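 note: values are mean percent inhibition of DYRK1B, from the GSK_PKIS set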
Write the value in % as a bare number.

Exam item: Identify measured inhibition associated with `CCCN1CCC(Oc2cc(Nc3nc(Nc4cccc(F)c4C(N)=O)c4cc[nH]c4n3)c(OC)cc2Cl)CC1`
Marked response: 27.1

Exam item: Identify measured inhibition associated with `COc1cc(C=NNc2ncnc3c2cnn3-c2ccccc2)ccc1O`
Marked response: 11

Exam item: Identify measured inhibition associated with `COc1cc2c(cc1Nc1nc(N3CCc4ccccc43)c3cc[nH]c3n1)N(C(=O)CN(C)C)CC2`
Marked response: 2.3

Exam item: Identify measured inhibition associated with `CC(=O)Nc1cccc(C#Cc2cncnc2Nc2ccc(OCc3cccc(F)c3)c(Cl)c2)n1`
Marked response: 2.18

Exam item: Identify measured inhibition associated with `COC(=O)Nc1nc2cc(Oc3cccc(NC(=O)Nc4cc(C(F)(F)F)ccc4F)c3)ccc2[nH]1`
Marked response: 1.68

Exam item: Identify measured inhibition associated with `NC(=O)c1ccc(-c2nc(-c3ccccn3)c(-c3ccc4c(c3)OCO4)[nH]2)cc1`
Marked response: 0.83

Exam item: Identify measured inhibition associated with `CS(=O)(=O)CCNCc1ccc(-c2ccc3ncnc(Nc4ccc(OCc5cccc(F)c5)c(C(F)(F)F)c4)c3c2)o1`
Marked response: -1.44

Exam item: Identify measured inhibition associated with `NS(=O)(=O)c1ccc(N/N=C2\C(=O)Nc3ccc(C(=O)NCCc4c[nH]cn4)cc32)cc1`
Marked response: 31.5

Exam item: Identify measured inhibition associated with `Nc1ncnc2occ(-c3ccc(NC(=O)Nc4cccc(C(F)(F)F)c4)cc3)c12`
Marked response: 1.94

Exam item: Identify measured inhibition associated with `COc1ccccc1Nc1ncc(-c2ccccc2)o1`
Marked response: -1.3

Exam item: Identify measured inhibition associated with `COc1ccc(COc2ccc(Cc3cnc(N)nc3N)cc2OC)cc1`
Marked response: 2.57

Exam item: Identify measured inhibition associated with CC1=C(C(=O)Nc2ccc3[nH]ncc3c2)C(c2ccc3ccccc3c2)CC(=O)N1 (stereo unspecified)
Marked response: 3.67

Exam item: Identify measured inhibition associated with `COc1ccc(-c2ccncc2)cc1C(N)=O`
Marked response: 2.44

Exam item: Identify measured inhibition associated with `Cc1nn(C)c2cc(N(C)c3ccnc(Nc4cccc(S(N)(=O)=O)c4)n3)ccc12`
Marked response: -1.3

Exam item: Identify measured inhibition associated with `Cc1cccc(-c2n[nH]cc2-c2ccc3ncccc3n2)n1`
Marked response: 4.09

Exam item: Identify measured inhibition associated with `CN1CCC(C(=O)Nc2n[nH]c3nnc(-c4ccccc4)cc23)CC1`
Marked response: 31.9

Exam item: Identify measured inhibition associated with `COc1cc2ncn(-c3cc(OCc4ccccc4Cl)c(C(N)=O)s3)c2cc1OC`
Marked response: 0.48

Exam item: Identify measured inhibition associated with `CS(=O)(=O)CCN(CC#N)Cc1ccc(-c2ccc3ncnc(Nc4ccc(OCc5cccc(F)c5)c(Cl)c4)c3c2)o1`
Marked response: -3.08

Exam item: Identify measured inhibition associated with `Cn1cc(C=C2C(=O)Nc3cccnc32)c2ccccc21`
Marked response: 4.49

Exam item: Identify measured inhibition associated with `Cc1ccc(C(=O)NC2CCCCC2)cc1-c1ccc(C(=O)NCC2CC2)cc1`
Marked response: 0.46

Exam item: Identify measured inhibition associated with `N#Cc1c(NC(=O)c2cccc3ccccc23)sc2c1CCCC2`
Marked response: 1.43

Exam item: Identify measured inhibition associated with CC1=C(C(=O)Nc2ccc3[nH]ncc3c2)C(c2ccc(Cl)c(Cl)c2)CC(=O)N1 (stereo unspecified)
Marked response: 3.21

Exam item: Identify measured inhibition associated with `CCn1c(-c2nonc2N)nc2cncc(C(=O)N3CC[C@H](N)C3)c21`
Marked response: 44.4

Exam item: Identify measured inhibition associated with `CC(C)=Cc1cccc2c1/C(=N/Nc1ccc(S(N)(=O)=O)cc1)C(=O)N2`
Marked response: 5.61

Exam item: Identify measured inhibition associated with `O=C1NC(=O)C(N2CCc3ccccc32)=C1c1ccc(Cl)cc1`
Marked response: 1.08

Exam item: Identify measured inhibition associated with `COc1cccc(-n2ncc3c(N/N=C/c4cccc(F)c4)ncnc32)c1`
Marked response: 14.9

Exam item: Identify measured inhibition associated with `Cc1nnc(-c2ccc(C)c(-c3ccc(C(=O)Nc4cccc(C#N)c4)cc3)c2)o1`
Marked response: 1.21

Exam item: Identify measured inhibition associated with `O=C1NC(=O)C(c2ccccc2Cl)=C1Nc1cccc(O)c1`
Marked response: 15.2

Exam item: Identify measured inhibition associated with CC1=C(C(=O)Nc2ccc3[nH]ncc3c2)C(c2ccc(F)cc2)NC(=O)N1 (stereo unspecified)
Marked response: 3.29

Exam item: Identify measured inhibition associated with `COc1ccc(-c2coc3ncnc(N)c23)cc1`
Marked response: 5.22

Exam item: Identify measured inhibition associated with `Cc1ccc(NC(=O)c2ccnc(N3CCCC3)c2)cc1-c1ccc(C(=O)NCC2CC2)cc1`
Marked response: -0.97

Exam item: Identify measured inhibition associated with `O=C1Nc2ccc(C(=O)c3ccco3)cc2C1=Cc1cc(Cl)c(O)c(Cl)c1`
Marked response: 81.5

Exam item: Identify measured inhibition associated with `COc1cc(C)c(NC(=O)CN(C)C)cc1Nc1nc(Nc2cccc(F)c2C(N)=O)c2cc[nH]c2n1`
Marked response: 14.8

Exam item: Identify measured inhibition associated with `CCn1c(-c2nonc2N)nc2ccncc21`
Marked response: 0.71

Exam item: Identify measured inhibition associated with `Fc1cccc(COc2ccc(Nc3ncnc4cc(-c5ccc[nH]5)sc34)cc2Cl)c1`
Marked response: -3.25

Exam item: Identify measured inhibition associated with `NS(=O)(=O)c1cccc(-c2ccc3c(NC(=O)C4CC4)n[nH]c3c2)c1`
Marked response: 3.65

Exam item: Identify measured inhibition associated with `CNC(=O)c1cncc(/C=C/c2c(Cl)cccc2Cl)c1`
Marked response: 3.55

Exam item: Identify measured inhibition associated with `Fc1cccc(COc2ccc(Nc3ncnc4sc(-c5cccs5)cc34)cc2Cl)c1`
Marked response: 2.06

Exam item: Identify measured inhibition associated with `COc1cc2ncn(-c3cc(O[C@@H](C)c4ccccc4Cl)c(C(N)=O)s3)c2cc1OC`
Marked response: 5.29

Exam item: Identify measured inhibition associated with `[O-][S+]1CCN(Cc2ccc(-c3ccc4ncnc(Nc5ccc(OCc6ccccc6)c(F)c5)c4c3)o2)CC1`
Marked response: 1.08

Exam item: Identify measured inhibition associated with `CCc1cccc(NC(=O)Nc2ccc(Oc3ccc4nc(NC(=O)OC)[nH]c4c3)cc2)c1`
Marked response: 1.1
